assay: in vivo; design: species or system mice; conditions: female, CD-I, mouse, ip, 10 mg/kg
property name: Cmax (µg/mL)

1) COC(=O)[C@]12CCC(C)(C)C[C@H]1[C@H]1C(=O)C=C3[C@@]4(C)C=C(C#N)C(=O)C(C)(C)[C@@H]4CC[C@@]3(C)[C@]1(C)CC2 [CDDO Methyl Ester, reference compound] : 0.363

====

assay: in vivo; parameters: species or system mice; settings: female, CD-I, mouse, ip, 10 mg/kg
property name: AUC(0-inf) (ng·h/mL)

1. COC(=O)[C@]12CCC(C)(C)C[C@H]1[C@H]1C(=O)C=C3[C@@]4(C)C=C(C#N)C(=O)C(C)(C)[C@@H]4CC[C@@]3(C)[C@]1(C)CC2 [CDDO Methyl Ester, reference compound] : 1970

====

Test: in vivo
Parameters: species or system mice
Details: female, CD-I, mouse, ip, 10 mg/kg
Procedure: Female CD-I mice were injected ip with 10 mg/kg of the three polymorphs of the compound of Formula I (CDDO ethyl) and methyl 2-cyano-3,12-dioxoIeana-1,9(11)-dien-28-oate (CDDO methyl) in DMSO-cremphor-PBS (1:1:8 weight by weight or volum by volum). Blood samples were collected at 0.083, 0.25, 0.5, 1, 2, 4, 8, and 24 hr post-dose. The levels were quantified by HPLC/MS using compound add to control blood for standard. PK results are shown at Table 3. […]
property name: half-life (h)

1) COC(=O)[C@]12CCC(C)(C)C[C@H]1[C@H]1C(=O)C=C3[C@@]4(C)C=C(C#N)C(=O)C(C)(C)[C@@H]4CC[C@@]3(C)[C@]1(C)CC2 [CDDO Methyl Ester, reference compound] : 6.6
